System: β-D-glucosidase (almond)
Assay Protocol: Glycosidase inhibition, Table 7
Type: biochemical
Test Settings: 1 mg/mL aqueous solution added, 27 °C, run in water
Classify as follows. Reported β-D-Glucosidase Almond, percentage inhibition greater than or equal to 20%: condition met. Reported β-D-Glucosidase Almond, percentage inhibition below: condition not met.

>  <Molecule>
OC[C@H](O)[C@@H]1[C@H](O)[C@H](O)CN1Cc1ccc(B(O)O)cc1

>  <Label Value>
condition met

$$$$
>  <Molecule>
OC[C@H](O)[C@@H]1[C@H](O)[C@H](O)CN1Cc1ccccc1

>  <Label Value>
condition not met

$$$$
>  <Molecule>
OB(O)c1ccc(CN2CC(O)C3OC(O)C(O)C32)cc1 (stereo not shown)

>  <Label Value>
condition met

$$$$
>  <Molecule>
CC1(C)O[C@H]2O[C@H]3[C@@H]([C@H]2O1)N(Cc1ccccc1)C[C@H]3O

>  <Label Value>
condition not met

$$$$
>  <Molecule>
N[C@@H](Cc1ccc(B(O)O)cc1)C(=O)O [BPA, 4-borono-L-phenylalanine, reference compound]

>  <Label Value>
condition not met

$$$$
>  <Molecule>
N[C@@H](Cc1ccc(B(O)O)cc1)C(=O)O [^10B-BPA, reference compound]

>  <Label Value>
condition not met

$$$$
>  <Molecule>
OC1O[C@@H]2[C@H]([C@H]1O)N(Cc1ccccc1)C[C@H]2O (stereo partly shown)

>  <Label Value>
condition met

$$$$

Sourced from paper PMC12472391
